Here, each record is paired with measured pIC50 data.
molecular target: PARP7 (Homo sapiens, UniProt Q7Z3E1); construct: purchased BPS 80527; test: PARP7 in vitro enzyme activity inhibition (chemiluminescence assay, selectivity test); format: biochemical; conditions: 6.25 nM of PARP7 solution, method of test example 1; read-out: PARP7 activity inhibition IC50
pIC50: −log10 of the molar value.

COC1(C)CN(C(=O)[C@@H](CCCNC(=O)c2ccc(-c3ncc(C(F)(F)F)s3)cc2)Nc2cn[nH]c(=O)c2C(F)(F)F)C1 ... > 8.52

**Query** Request - read-out pIC50 | tested on PARP7 (Homo sapiens, UniProt Q7Z3E1) | compound O=C(NCCCC(Nc1cn[nH]c(=O)c1C(F)(F)F)C(=O)N1CCOCC1)c1cnc(-c2ncc(C(F)(F)F)cn2)cn1 (stereo not drawn)
**Result** > 8.52

**Query** Same lookup for C[C@H]1CCN(C(=O)[C@@H](CCCNC(=O)c2ccc(-c3ncc(C(F)(F)F)s3)cc2)Nc2cn[nH]c(=O)c2C(F)(F)F)C1 , please.
**Result** > 8.52

**Query** Would you mind doing CC1(C#N)CN(C(=O)[C@@H](CCCNC(=O)c2ccc(-c3ncc(C(F)(F)F)s3)cc2)Nc2cn[nH]c(=O)c2C(F)(F)F)C1 as well?
**Result** 8.00 to 8.52

**Query** Also check O=C(NCCCC(Nc1cn[nH]c(=O)c1C(F)(F)F)C(=O)N1CCCC1)c1ccc(-c2ncc(C(F)(F)F)cn2)cc1 (stereo not drawn)
**Result** > 8.52

**Query** What do you get for C[C@@H]1COCCN1C(=O)[C@@H](CCCNC(=O)c1ccc(-c2ncc(C(F)(F)F)s2)cc1)Nc1cn[nH]c(=O)c1C(F)(F)F ?
**Result** > 8.52

---

Target: PARP7 (Homo sapiens, UniProt Q7Z3E1)
Construct: purchased BPS 80527
Sequence (Q7Z3E1 1-657): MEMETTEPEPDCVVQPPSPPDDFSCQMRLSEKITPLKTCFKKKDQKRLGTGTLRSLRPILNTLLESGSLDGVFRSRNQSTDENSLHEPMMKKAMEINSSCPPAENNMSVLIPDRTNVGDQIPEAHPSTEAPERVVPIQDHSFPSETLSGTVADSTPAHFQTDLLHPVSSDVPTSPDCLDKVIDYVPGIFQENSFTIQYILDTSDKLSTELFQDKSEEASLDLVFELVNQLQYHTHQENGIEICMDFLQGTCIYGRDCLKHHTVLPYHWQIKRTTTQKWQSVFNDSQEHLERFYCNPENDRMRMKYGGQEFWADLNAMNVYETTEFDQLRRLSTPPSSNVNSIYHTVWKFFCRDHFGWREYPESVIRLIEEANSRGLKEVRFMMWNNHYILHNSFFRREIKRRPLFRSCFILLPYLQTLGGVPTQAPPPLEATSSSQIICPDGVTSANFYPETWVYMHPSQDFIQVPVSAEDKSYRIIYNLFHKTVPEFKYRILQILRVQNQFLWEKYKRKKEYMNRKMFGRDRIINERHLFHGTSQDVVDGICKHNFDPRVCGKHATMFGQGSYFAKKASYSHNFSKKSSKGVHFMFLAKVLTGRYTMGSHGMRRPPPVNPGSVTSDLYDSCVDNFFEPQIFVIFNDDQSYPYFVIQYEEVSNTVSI
Assay: Inhibition of the compound on PARP7 protein activity (ADP-ribosylation, chemiluminescence)
Type: biochemical
Details: Histone H1 coated plate, Biotin-Labeled NAD+, 2 h at room temperature, chemiluminescence; read-out: PARP7 activity inhibition IC50
pIC50: −log10 of the molar value.
Readout label: pIC50

CC1(C#N)CN(C(=O)[C@@H](CCCNC(=O)c2ccc(-c3ncc(C(F)(F)F)s3)cc2)Nc2cn[nH]c(=O)c2C(F)(F)F)C1 ... 8.00 to 8.52

**Query** Please look up its pIC50: O=C(NCCc1n[nH]c(=O)c(C(F)(F)F)c1N1CC2(CCC2)C1)c1cnc(-c2ncc(C(F)(F)F)cn2)cn1
**Result** 8.00 to 8.52

**Query** Let us now turn to Cc1cc(NCCCC(C)NC(=O)c2cnc(-c3ncc(C(F)(F)F)cn3)cn2)c(C#N)c(=O)[nH]1 (centres unmarked)
**Result** 7.00 to 7.52

**Query** And what about the molecule CC(CCCNC(=O)c1cnn(-c2ncc(C(F)(F)F)cn2)c1)Nc1cn[nH]c(=O)c1C(F)(F)F (centres unmarked) ?
**Result** > 8.52

**Query** Cool, now CC(CCCNC(=O)c1ccc2c(=O)n(C)cnc2c1)Nc1cn[nH]c(=O)c1C(F)(F)F (centres unmarked)
**Result** 7.00 to 7.52

**Query** Same lookup for CC(CCCNC(=O)c1ccc(-c2ncc(N3CCOCC3)s2)cc1)Nc1cn[nH]c(=O)c1C(F)(F)F (centres unmarked) , please.
**Result** 8.00 to 8.52

**Query** Likewise for CC(CCCNC(=O)c1ncc(-c2ncc(C(F)F)s2)cc1F)Nc1cn[nH]c(=O)c1C(F)(F)F (centres unmarked) ?
**Result** > 8.52

**Query** Next up: CC(CCCN(C)C(=O)c1cnc(-c2ncc(C(F)(F)F)cn2)cn1)Nc1cn[nH]c(=O)c1C(F)(F)F (centres unmarked)
**Result** > 8.52

**Query** What about this molecule? Cc1cc(NC(C)CCCN(C)C(=O)c2ccc(-c3ncc(C(F)(F)F)cn3)cc2O)c(C#N)c(=O)[nH]1 (centres unmarked)
**Result** 7.00 to 7.52

**Query** Note, next up: CO[C@H]1CCN(C(=O)[C@@H](CCCNC(=O)c2ccc(-c3ncc(C(F)(F)F)s3)cc2)Nc2cn[nH]c(=O)c2C(F)(F)F)C1
**Result** > 8.52

**Query** Would you kindly repeat that for CC(CCCNC(=O)c1ccc(-c2ccc(-c3cnco3)cn2)cc1)Nc1cn[nH]c(=O)c1C(F)(F)F (centres unmarked) ?
**Result** > 8.52

**Query** Try O=C(NCCCC(Nc1cn[nH]c(=O)c1C(F)(F)F)C(=O)N1CCCC1)c1cnc(-c2ncc(C(F)(F)F)cn2)cn1 (centres unmarked) next.
**Result** > 8.52

**Query** How about this molecule: CC(CCCNC(=O)c1ccc(-c2nc(C(F)(F)F)no2)cc1)Nc1cn[nH]c(=O)c1C(F)(F)F (centres unmarked)
**Result** 8.00 to 8.52

**Query** Also need CC(CCCNC(=O)c1ncc(-c2ncc(C(F)(F)F)s2)cc1F)Nc1cn[nH]c(=O)c1C(F)(F)F (centres unmarked) , thanks.
**Result** > 8.52

---

target: PARP7 (Homo sapiens); construct: purchased BPS 80527; experiment: PARP7 TR-FRET binding inhibition (displacement of probe RBN011147); conditions: TR-FRET, Biotin-labeled probe RBN011147; read-out: PARP7 binding inhibition IC50
pIC50: −log10 of the molar value.
Readout label: pIC50

A selection of reference data follows.
O=C(c1ccc(-c2ncc(C(F)(F)F)s2)cc1)N1CC2(CC(Nc3cn[nH]c(=O)c3C(F)(F)F)C2)C1 [Example 219] ... < 7.00
Cc1cc(NCCCC(C)NC(=O)c2cnc(-c3ncc(C(F)(F)F)cn3)cn2)c(C#N)c(=O)[nH]1 (centres unmarked) [Example 49] ... < 7.00
CC(CCCNC(=O)c1ncc(-c2ncc(N3CC(F)C3)cn2)cc1F)Nc1cn[nH]c(=O)c1C(F)(F)F (centres unmarked) [Example 72] ... > 8.00

**Query** Fill in: pIC50 of CC(CCCNC(=O)c1ncc(-c2ncc(C(F)F)s2)cc1F)Nc1cn[nH]c(=O)c1C(F)(F)F (centres unmarked) [Example 74] is ___
**Result** > 8.00

**Query** Repeat for the following compound: CC1(C)CN(C(=O)C(CCCNC(=O)c2ccc(-c3ncc(C(F)(F)F)s3)cc2)Nc2cn[nH]c(=O)c2C(F)(F)F)C1 (centres unmarked) [Example 85]
**Result** > 8.00

**Query** Another compound to look at: O=C(NCCC[C@@H](Nc1cn[nH]c(=O)c1C(F)(F)F)C(=O)Nc1cccnc1)c1ccc(-c2ncc(C(F)(F)F)s2)cc1 [Example 234]
**Result** > 8.00

---

Recorded IC50, one value per entry.
test system: NCI-H1373 cells; experiment: Inhibition on NCI-H1373 cell proliferation (Cell-Titer-Glo); assay type: cell-based; details: Homo sapiens, 144 h; NCI-H1373 cells, incubation for 6 days, Cell-Titer-Glo; read-out: NCI-H1373 cell proliferation inhibition IC50

Illustrative cases are given below, each with its answer.
CCCc1cnc(-c2ccc(C(=O)NCCCC(C)Nc3cn[nH]c(=O)c3C(F)(F)F)cc2)s1 (stereo not shown) [Example 41] ... 300 to 1000 nM
CC(CCCNC(=O)c1ccc(-c2csc(C(F)(F)F)n2)nc1)Nc1cn[nH]c(=O)c1C(F)(F)F (stereo not shown) [Example 177] ... 1000 to 3000 nM
N#CC1CCN(C(=O)C(CCCNC(=O)c2ccc(-c3ncc(C(F)(F)F)s3)cc2)Nc2cn[nH]c(=O)c2C(F)(F)F)C1 (stereo not shown) [Example 261] ... 300 to 1000 nM

# input for lookup
**Query** Field request: IC50 | item: CC(CCCN1C(=O)c2ccc(-c3ncc(C(F)(F)F)cn3)cc2C1=O)Nc1cn[nH]c(=O)c1C(F)(F)F (stereo not shown) [Example 9]
**Result** > 3000 nM
